# credit: patent US20070015725A1

Test system: oligonucleotide duplexes
Experiment: Tm values and thermodynamic parameters of duplex formation (absorbance vs. temperature melting curves)
Type: binding
Settings: 10 mM Na-cacodylate, 100 mM NaCl, 10 mM MgCl2, pH 7; 5 μM single strand concentration
In the oligonucleotide strings, read from the 5' end, every base follows the letter of its sugar. An asterisk marks phosphorothioate; unmarked linkages are phosphodiester. Other units and linkages are bracketed, terminal groups are in braces. A string of capitals states the bases alone. [z2A] = 2-aza-2'-deoxyadenosine; d = 2'-deoxy (DNA)
Kindly supply the reported Tm values for the records listed here.

Batch request: Tm for each of the following substances.
1. 5′-d(TAGGTC66TACT) 3′-d(ATCCAGGGATGA): duplex SEQ ID NO: 5 with SEQ ID NO: 8; 6: z^2Ad; two z^2Ad-dG pairs (chain 1 TAGGTCNNTACT; z2Ad modified nucleosides; modified_base (7)..(8) n = 2-Aza 2′-deoxyadenosine)
2. 5′-d(TAGGTCGGTACT) 3′-d(ATCCAGCCATGA): unmodified duplex SEQ ID NO: 9 with SEQ ID NO: 7; two G-C pairs (listed as DNA, chemistry not fully specified; one strand is listed 3' to 5') [reference compound]
3. 5′-d(TAGGTC6ATACT) 3′-d(ATCCAGTTATGA): duplex SEQ ID NO: 3 with SEQ ID NO: 2; 6: z^2Ad; one z^2Ad-dT pair (chain 1 TAGGTCAATACT; chain 1: DNA, [z2A] at 7, backbone not given here; chain 2: unmodified DNA)
4. 5′-d(TAGGTC66TACT) 3′-d(ATCCAGAAATGA): duplex SEQ ID NO: 5 with SEQ ID NO: 6; 6: z^2Ad; two z^2Ad-dA pairs (chain 1 TAGGTCNNTACT; z2Ad modified nucleosides; modified_base (7)..(8) n = 2-Aza 2′-deoxyadenosine)
5. 5′-d(TAGGTC6ATACT) 3′-d(ATCCAGGTATGA): duplex SEQ ID NO: 3 with SEQ ID NO: 4; 6: z^2Ad; one z^2Ad-dG pair (chain 1 dTdAdGdGdTdCd[z2A]dAdTdAdCdT; chain 2: unmodified DNA)
6. 5′-d(TAGGTCAATACT) 3′-d(ATCCAGTTATGA): unmodified standard duplex, SEQ ID NO: 1 with SEQ ID NO: 2 (= SEQ ID NO: 10) (listed as DNA, chemistry not fully specified; one strand is listed 3' to 5') [reference compound]
7. 5′-d(TAGGTC66TACT) 3′-d(ATCCAGTTATGA): duplex SEQ ID NO: 5 with SEQ ID NO: 2; 6: z^2Ad; two z^2Ad-dT pairs (chain 1 dTdAdGdGdTdCd[z2A]d[z2A]dTdAdCdT; chain 2: unmodified DNA)

1. 46 °C
2. 54 °C
3. 42 °C
4. 25 °C
5. 46 °C
6. 46 °C
7. 37 °C

###

Tested on: oligonucleotide duplexes
Assay: Tm values and thermodynamic parameters of duplex formation (absorbance vs. temperature melting curves)
Type: binding
Details: duplex formation; 10 mM Na-cacodylate, 100 mM NaCl, 10 mM MgCl2, pH 7; 5 μM single strand; MeltWin 3.0
In the oligonucleotide strings, read from the 5' end, every base follows the letter of its sugar. An asterisk marks phosphorothioate; unmarked linkages are phosphodiester. Other units and linkages are bracketed, terminal groups are in braces. A string of capitals states the bases alone. [z2A] = 2-aza-2'-deoxyadenosine; d = 2'-deoxy (DNA)
MEASURE: ΔS (cal/K mol)
Numbers only, in cal/K mol.

Batch request: ΔS for each of the following substances.
1. 5′-d(TAGGTCAATACT) 3′-d(ATCCAGTTATGA): unmodified standard duplex, SEQ ID NO: 1 with SEQ ID NO: 2 (= SEQ ID NO: 10) (listed as DNA, chemistry not fully specified; one strand is listed 3' to 5') [reference compound]
2. 5′-d(TAGGTC6ATACT) 3′-d(ATCCAGTTATGA): duplex SEQ ID NO: 3 with SEQ ID NO: 2; 6: z^2Ad; one z^2Ad-dT pair (chain 1 TAGGTCAATACT; chain 1: DNA, [z2A] at 7, backbone not given here; chain 2: unmodified DNA)

["−230", "−245"]

Batch request: ΔS for each of the following substances.
1. 5′-d(TAGGTC6ATACT) 3′-d(ATCCAGGTATGA): duplex SEQ ID NO: 3 with SEQ ID NO: 4; 6: z^2Ad; one z^2Ad-dG pair (chain 1 dTdAdGdGdTdCd[z2A]dAdTdAdCdT; chain 2: unmodified DNA)
2. 5′-d(TAGGTC66TACT) 3′-d(ATCCAGAAATGA): duplex SEQ ID NO: 5 with SEQ ID NO: 6; 6: z^2Ad; two z^2Ad-dA pairs (chain 1 TAGGTCNNTACT; z2Ad modified nucleosides; modified_base (7)..(8) n = 2-Aza 2′-deoxyadenosine)
3. 5′-d(TAGGTC66TACT) 3′-d(ATCCAGGGATGA): duplex SEQ ID NO: 5 with SEQ ID NO: 8; 6: z^2Ad; two z^2Ad-dG pairs (chain 1 TAGGTCNNTACT; z2Ad modified nucleosides; modified_base (7)..(8) n = 2-Aza 2′-deoxyadenosine)

−236
−141
−206

###

Kindly supply the reported Tm values for the records listed here.
System: oligonucleotide duplexes
Test: Tm values and thermodynamic parameters of duplex formation (absorbance vs. temperature melting curves)
Type: binding
Conditions: 10 mM Na-cacodylate, 100 mM NaCl, 10 mM MgCl2, pH 7; 5 μM single strand concentration
Answers are plain numbers, in °C.

5′-d(TAGGTCAATACT) 3′-d(ATCCAGGGATGA): unmodified duplex SEQ ID NO: 1 with SEQ ID NO: 8; two dA-dG mismatches (unmodified DNA) [reference compound] = 36

Now consider a different substance.
Give recorded Tm. 5′-d(TAGGTC66TACT) 3′-d(ATCCAGCCATGA): duplex SEQ ID NO: 5 with SEQ ID NO: 7; 6: z^2Ad; two z^2Ad-dC pairs (chain 1 TAGGTCNNTACT; z2Ad modified nucleosides; modified_base (7)..(8) n = 2-Aza 2′-deoxyadenosine)
20

###

Kindly supply the reported ΔS values for the records listed here.
Tested on: oligonucleotide duplexes
Assay: Tm values and thermodynamic parameters of duplex formation (absorbance vs. temperature melting curves)
Format: binding
Conditions: duplex formation; 10 mM Na-cacodylate, 100 mM NaCl, 10 mM MgCl2, pH 7; 5 μM single strand; MeltWin 3.0
In the oligonucleotide strings, read from the 5' end, every base follows the letter of its sugar. An asterisk marks phosphorothioate; unmarked linkages are phosphodiester. Other units and linkages are bracketed, terminal groups are in braces. A string of capitals states the bases alone. [z2A] = 2-aza-2'-deoxyadenosine; d = 2'-deoxy (DNA)

Solved entries (count: 2):
5′-d(TAGGTCAATACT) 3′-d(ATCCAGGGATGA): unmodified duplex SEQ ID NO: 1 with SEQ ID NO: 8; two dA-dG mismatches (unmodified DNA) [reference compound] = −127 cal/K mol
5′-d(TAGGTC66TACT) 3′-d(ATCCAGCCATGA): duplex SEQ ID NO: 5 with SEQ ID NO: 7; 6: z^2Ad; two z^2Ad-dC pairs (chain 1 TAGGTCNNTACT; z2Ad modified nucleosides; modified_base (7)..(8) n = 2-Aza 2′-deoxyadenosine) = −113 cal/K mol

Now consider a different substance.
// fetch ΔS for 5′-d(TAGGTC66TACT) 3′-d(ATCCAGTTATGA): duplex SEQ ID NO: 5 with SEQ ID NO: 2; 6: z^2Ad; two z^2Ad-dT pairs (chain 1 dTdAdGdGdTdCd[z2A]d[z2A]dTdAdCdT; chain 2: unmodified DNA) ; system: oligonucleotide duplexes
−219 cal/K mol
